Data credit: patent US9884812B2

Test: Solubility in cell medium
Format: physicochemical
Details: solution of ligand in DMSO (20 mM) diluted in cell media to 100 μM; scale from 'very poor' (almost insoluble) to 'very good' (freely soluble over extended periods at 4° C.)
parameter: Solubility in cell medium

Past entries and their recorded results:
query: Solubility in cell medium lookup needed for Cc1ccccc1NC(=O)Nc1cccc(Cl)c1 [Compound 39, 1-(3-chlorophenyl)-3-(o-tolyl)urea] , thanks.
result: Moderate at 100 μM

query: Same read-out for Cc1ccccc1NC(=O)Nc1ccc(OC(F)(F)F)cc1 [Compound 43] ?
result: Good

query: Also, Cc1ccccc1NC(=O)Nc1ccc(Br)cc1 [Compound 41, 1-(4-bromophenyl)-3-(o-tolyl)urea] please.
result: Moderate at 100 μM

query: Here is the next compound: CC1CCCCC1NC(=O)Nc1cccc([N+](=O)[O-])c1 (stereo not shown) [Compound 21]
result: moderate

query: Entry to check: Cc1ccccc1NC(=O)NCCN(C)C [Compound 26]
result: good

---
query: What measured Solubility in cell medium goes with Cc1ccccc1NC(=O)Nc1cccc(C#N)c1 [Compound 3, 3-(3-cyanophenyl)-1-(2-methylphenyl)urea] ?
result: good

query: Next record, please: CCCCCCCCNC(=S)Nc1ccccc1C [Compound 28, 1-(2-methylphenyl)-3-octylthiourea]
result: good

query: Again, but for Cc1ccccc1NC(=S)Nc1cccc([N+](=O)[O-])c1 [Compound 17]
result: good

query: Follow-up item: N#Cc1cccc(NC(=O)Nc2ncccn2)c1 [Compound 12, 3-(3-cyanophenyl)-1-(pyrimidin-2-yl)urea]
result: poor

query: Then this compound: CC1CCCCC1NC(=O)Nc1cccc(C#N)c1 (stereo not shown) [Compound 23]
result: moderate

query: Please do the same for Cc1ccccc1NC(=O)Nc1ccc(SC(F)(F)F)cc1 [Compound 42] as well.
result: Good
